Some compounds, each annotated with its measured chemical recovery.
test: chemical recovery from spiked human plasma; higher = better extraction; settings: pooled human plasma; extraction method: solvent precipitation (ACN + hexane)
Endpoint: chemical recovery

- Compound: "Oc1cc(Cl)ccc1Oc1ccc(Cl)cc1Cl"
  Value measured: "40%"
- Compound: "CCOC(=O)c1ccc(O)cc1"
  Value measured: "66.3%"
- Compound: "CCn1cc(C(=O)O)c(=O)c2cc(F)c(N3CCNCC3)cc21"
  Value measured: "63.3%"
- Compound: "Cc1cnc2ccc3c(nc(N)n3C)c2n1 [2-Amino-3,8-dimethylimidazo-[4,5-f]quinoxaline (MeIQx)]"
  Value measured: "72.4%"
- Compound: "COC(=O)c1ccc(CNS(C)(=O)=O)cc1S(=O)(=O)NC(=O)Nc1nc(OC)cc(OC)n1"
  Value measured: "74.9%"
- Compound: "COc1cc2c(c(OC)c1OC)-c1ccc(OC)c(=O)cc1[C@@H](NC(C)=O)CC2"
  Value measured: "70%"
- Compound: "CC(C)(C)C(O)C(Oc1ccc(Cl)cc1)n1cncn1 (stereo not given)"
  Value measured: "68.9%"
- Compound: "O=C(c1ccccc1)c1ccc(O)cc1 [4-Hydroxybenzophenone]"
  Value measured: "77.7%"
- Compound: "Cc1c(COC(=O)C2C(/C=C(\\Cl)C(F)(F)F)C2(C)C)cccc1-c1ccccc1 (stereo not given)"
  Value measured: "18.9%"
- Compound: "CCNc1nc(NC(C)(C)C)[nH]c(=O)n1 [Terbuthylazine-2-hydroxy]"
  Value measured: "76.7%"
- Compound: "CN1CCN(C2=Nc3cc(Cl)ccc3Nc3ccccc32)CC1"
  Value measured: "68.3%"
- Compound: "CC(C)C1CCC(Cc2ccc(Cl)cc2)C1(O)Cn1cncn1 (stereo not given)"
  Value measured: "75.8%"
- Compound: "CC(C)N(C(=O)CCl)c1ccccc1"
  Value measured: "45.1%"
- Compound: "CCN(CCCCOC(=O)c1ccc(OC)c(OC)c1)C(C)Cc1ccc(OC)cc1 (stereo not given)"
  Value measured: "69.6%"
- Compound: "CC(C)NCC(O)COc1ccc(CC(N)=O)cc1 (stereo not given)"
  Value measured: "76%"
- Compound: "C=CCOC(Cn1ccnc1)c1ccc(Cl)cc1Cl (stereo not given)"
  Value measured: "75%"
- Compound: "CCCCOP(=O)(O)OCCCC [Di-n-butyl phosphate]"
  Value measured: "67.8%"
- Compound: "Cc1cc(Cl)ccc1/N=C/N(C)C [Chlordimeform]"
  Value measured: "30.1%"
- Compound: "CCCN(CCC)CCC"
  Value measured: "2.09%"
- Compound: "CC/C(=N\\OC/C=C/Cl)C1=C(O)CC(C2CCOCC2)CC1=O (stereo not given)"
  Value measured: "73.8%"
- Compound: "C1=Cc2ccccc2Nc2ccccc21"
  Value measured: "73.2%"
- Compound: "COCC(C)N(C(=O)CCl)c1c(C)csc1C (stereo not given)"
  Value measured: "55.4%"
- Compound: "CC1COCc2cc3c(cc21)C(C)(C)C(C)C3(C)C (stereo not given) [Galaxolide]"
  Value measured: "99.6%"
- Compound: "OC(Cn1cncn1)(Cn1cncn1)c1ccc(F)cc1F"
  Value measured: "77.1%"
- Compound: "CCCCCCCCCCCCCC(=O)NCCC[N+](C)(C)CCCS(=O)(=O)[O-]"
  Value measured: "74.8%"
- Compound: "N[C@@H](CC(=O)N1CCn2c(nnc2C(F)(F)F)C1)Cc1cc(F)c(F)cc1F"
  Value measured: "72.7%"
- Compound: "COCC(=O)N(c1c(C)cccc1C)C(C)C(=O)OC (stereo not given) [Metalaxyl]"
  Value measured: "70.2%"
- Compound: "CN/C(=N\\[N+](=O)[O-])NCc1cnc(Cl)s1"
  Value measured: "75.8%"
- Compound: "C[N+](C)(C)Cc1ccccc1"
  Value measured: "75.8%"
- Compound: "CCCCCCN"
  Value measured: "19.7%"
- Compound: "CCc1cc(Cc2cc(CC)cc(C(C)(C)C)c2O)c(O)c(C(C)(C)C)c1 [2,2'-Methylenebis(ethyl-6-tert-butylphenol)]"
  Value measured: "64.9%"
- Compound: "NC(=O)N1c2ccccc2CC(=O)c2ccccc21 [Oxcarbazepine]"
  Value measured: "0.126%"
- Compound: "COP(=O)(OC)O/C(C)=C/C(=O)N(C)C"
  Value measured: "59.3%"
- Compound: "CCN(CC)c1ccccc1"
  Value measured: "0.0912%"
- Compound: "CC(C)C1C2CCC1c1c(NC(=O)c3cn(C)nc3C(F)F)cccc12 (stereo not given)"
  Value measured: "72.1%"
- Compound: "O=c1ccc2ccccc2[nH]1 [2-Hydroxyquinoline]"
  Value measured: "78.2%"
- Compound: "CCCCCCCCCCOS(=O)(=O)O [Decylsulfate]"
  Value measured: "50.4%"
- Compound: "CNC1(c2ccccc2Cl)CCCCC1=O (stereo not given)"
  Value measured: "59%"
- Compound: "O=C(O)C1C(C(=O)O)C2(Cl)C(Cl)=C(Cl)C1(Cl)C2(Cl)Cl (stereo not given)"
  Value measured: "28.2%"
- Compound: "O=C1CC2(CCCCC2)CN1"
  Value measured: "71.2%"
